# method notes: PSAC antagonists in infected red cells, primary screen, cell-based, P. falciparum Indochina, OD700, 1 h (AID 1154)
# study conditions: P. falciparum Indochina infected RBC osmotic lysis, called active from +8 up or from −8 down
Active and inactive are the calls of the source.
Write down one outcome, taken from active, inactive

Inquiry: For C[C@H]1CC[C@H]2C(=O)OC(CO)CN2[C@@H]1c1ccc(Br)cc1 (stereo partly specified) , what call appears in the results of this test?
Reply text: inactive

Inquiry: // return assay outcome for `CON=C[C@@H](C)[C@H](OCc1ccccc1)C(C)C`
Reply text: inactive

Inquiry: Tell me the recorded outcome of this test for Cc1cc2c(nc1C)CCCCN2CC(C)ON=C1[C@H]2CCn3c(=O)n(-c4ccccc4)c(=O)n3[C@H]2[C@H](O)[C@@H]2O[C@H]12 (stereo partly specified) .
Reply text: inactive

Inquiry: Could you check what this test reported for `CC(C)CON=C1C[C@@H](O)[C@@H](O)[C@@H]2[C@@H]3C(=O)N(c4ccc(F)cc4F)C(=O)[C@@H]3CC[C@H]12` ?
Reply text: inactive

Inquiry: Dear colleague, could you share the recorded outcome for `COC(=O)[C@H]1O[C@@H](c2c(OC)c(OC)c(C)c(OC)c2OC)[C@H](C)[C@@H](O)[C@H]1C` when you have a moment?
Reply text: inactive

Inquiry: Test call for this compound, please: `C[C@@H]1NC(=O)[C@@H](C)COC(=O)[C@H](C)NC(=O)[C@@H](C)COC1=O`
Reply text: inactive

Inquiry: What classification did `COC(=O)[C@H]1[C@@H](O)[C@@]2(O)c3ccccc3O[C@@]2(c2ccccc2)[C@@H]1c1ccccc1` end up with in this test?
Reply text: inactive

Inquiry: Identify the outcome logged in this assay for the compound shown: `C[C@@H](c1ccccc1)N1C(=O)[C@H]2[C@H]3[C@H](O)[C@H](O)CC(=NOCc4ccccc4)[C@H]3CC[C@H]2C1=O`
Reply text: active

Inquiry: For this compound, state the assay outcome: CCOC(=O)[C@H](Cc1ccccc1)NC(=O)CCC1CC(OC(=O)NCc2ccc3c(c2)OCO3)CC2(CCCC(COC(=O)NCCc3ccccc3OC)O2)O1 (stereo partly specified)
Reply text: inactive

Inquiry: // param item: `O=C1[C@H]2[C@H]3[C@H](O)[C@H](O)CC(=NOC[C@@H](O)COCc4ccco4)[C@H]3CC[C@H]2C(=O)N1Cc1ccccc1` ; yields the recorded call
Reply text: inactive

Inquiry: Please indicate how the test categorized `C=Cc1ccc([C@H]2N[C@H](C(=O)O)CC[C@@H]2C)cc1` .
Reply text: inactive

Inquiry: Name the outcome recorded for `CO[C@@H]1COC(=O)[C@@H](C)COC(=O)[C@@H](C)NC(=O)CC=C[C@@H]1C` in the assay.
Reply text: inactive

Inquiry: Recorded test outcome, item `COC(=O)CC=C[C@@H](C)[C@@H](C=NOCC[C@@H]1C=C[C@H](OC(C)=O)[C@@H](COC(C)=O)O1)OC`
Reply text: inactive

Inquiry: Please let me know the test result on file for `C#CCCCON=C1[C@H]2CCn3c(=O)n(C)c(=O)n3[C@H]2[C@H](O)[C@@H]2O[C@H]12` .
Reply text: inactive

Inquiry: What was the test verdict on `CC(C)CON=C1C[C@@H](O)[C@@H](O)[C@@H]2[C@@H]3C(=O)N(C[C@@H]4CCCO4)C(=O)[C@@H]3CC[C@@H]12` ?
Reply text: inactive

Inquiry: In this assay, the call recorded for `C[C@@H](c1ccccc1)N1C(=O)[C@H]2[C@H]3[C@H](O)[C@H](O)CC(=O)[C@H]3CC[C@H]2C1=O` was what?
Reply text: inactive
